B1: Nuclear receptor subfamily 4 group A member 2, residues 260 to 336; numbered along this chain, P43354 (parent)
chain: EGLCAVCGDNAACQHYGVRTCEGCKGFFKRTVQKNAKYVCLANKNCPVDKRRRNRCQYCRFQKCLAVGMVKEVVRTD

variants of: B1; assay: abundance fitness (aPCA) (normalised: wild type 0, dead -1); higher = more abundant; growth selection in yeast, the domain comes from the species named; conditions: Homo sapiens
Property: abundance fitness; scope: individual variants
Respond with the number and no other words.

// worked examples, abundance fitness included
EGLCAVCGDNAACQHYGVRTCEGCKGFFKRTVQKNAKYVCLANKNCPVDKGRRNRCQYCRFQKCLAVGMVKEVVRTD [R51G]: -0.001
EGLCAVCGDNAACQHYGVRTCEGCKGFFKRTVQKNAKYVCLANKNCPVDKRDRNRCQYCRFQKCLAVGMVKEVVRTD [R52D]: 0.002
EGLCAVCGDNAACQHYGWRTCEGCKGFFKRTVQKNAKYVCLANKNCPVDKRRRNRCQYCRFQKCLAVGMVKEVVRTD [V18W]: -0.484
EGLCAVCGDNAACQHYGVRTCEGCKGFFKRTVQKNAKYVCLANKNCPVDKRRRNRCQYCRTQKCLAVGMVKEVVRTD [F61T]: -0.377
EGLCAVCGDNAATQHYGVRTCEGCKGFFKRTVQKNAKYVCLANKNCPVDKRRRNRCQYCRFQKCLAVGMVKEVVRTD [C13T]: 0.006
EGLCAVCGDNAACQHYGVRTCEGCKGVFKRTVQKNAKYVCLANKNCPVDKRRRNRCQYCRFQKCLAVGMVKEVVRTD [F27V]: -0.934

**Q:** Need abundance fitness, item EGLCAVCGDNAACQHYGVRTCSGCKGFFKRTVQKNAKYVCLANKNCPVDKRRRNRCQYCRFQKCLAVGMVKEVVRTD [E22S]
**A:** -0.204

**Q:** Cool, now EGLCAVCGDNAACQHYGVRTCEGCKGFFRRTVQKNAKYVCLANKNCPVDKRRRNRCQYCRFQKCLAVGMVKEVVRTD [K29R]
**A:** -0.123

**Q:** // same read-out, input: EGLCAVCGDNAACQHYGVRTCEGCKGFFKRTVQKNAKYVCLANKNCPVDKRRRNRCQYCRFQKGLAVGMVKEVVRTD [C64G]
**A:** -0.277

**Q:** Also EGLCAVCGDNAACQHYGVRTCEGCKGFFKRTVQKNAKYVCLANKNCPVDERRRNRCQYCRFQKCLAVGMVKEVVRTD [K50E] , if possible.
**A:** 0.175

**Q:** Do the same for EGLCAVCGDNAACQHYGHRTCEGCKGFFKRTVQKNAKYVCLANKNCPVDKRRRNRCQYCRFQKCLAVGMVKEVVRTD [V18H] please
**A:** -0.387

**Q:** Field entry: EGLCAVCGDNAACQHYGVRTCEGCKGFFKRTVQKNAKYVCLANKNCPVDKRRRNRCQYCRFQKCLAVGMVKEVVRDD [T76D]
**A:** 0.098

**Q:** Further, for EGLCAVCGDNAACQHYGVRTCEGCKGFFKRTVQKNAKYVCLANKNCPVDKRRRNRRQYCRFQKCLAVGMVKEVVRTD [C56R] ?
**A:** -1.06

**Q:** Check EGLCAVCGDNAACQHYGVRTCEGCKGFTKRTVQKNAKYVCLANKNCPVDKRRRNRCQYCRFQKCLAVGMVKEVVRTD [F28T] too.
**A:** -0.049

**Q:** Further, for EGLCAVCGDNAACQHYGVRTCEGCKGFFKRTVQKNAKYVCLANKNCPVDKRRRNRCQYCRFQKCLAVGMVKMVVRTD [E72M] ?
**A:** -0.099

**Q:** Same for EGLCAVCGDNAACQHYGVRTCEGCKGFFKRTVQKNAKYVCLANKNCPVDKRRRNRSQYCRFQKCLAVGMVKEVVRTD [C56S]
**A:** -0.667

**Q:** Another variant: EGLCAVCGDNAACQHYGVRTCEGCKGFFKRTVQKNAKYVCLANKNCPVDARRRNRCQYCRFQKCLAVGMVKEVVRTD [K50A]
**A:** -0.098
